Value source: ChEMBL document CHEMBL4828768

- Target Or System: UniProt P18031
- Sequence (whole entry): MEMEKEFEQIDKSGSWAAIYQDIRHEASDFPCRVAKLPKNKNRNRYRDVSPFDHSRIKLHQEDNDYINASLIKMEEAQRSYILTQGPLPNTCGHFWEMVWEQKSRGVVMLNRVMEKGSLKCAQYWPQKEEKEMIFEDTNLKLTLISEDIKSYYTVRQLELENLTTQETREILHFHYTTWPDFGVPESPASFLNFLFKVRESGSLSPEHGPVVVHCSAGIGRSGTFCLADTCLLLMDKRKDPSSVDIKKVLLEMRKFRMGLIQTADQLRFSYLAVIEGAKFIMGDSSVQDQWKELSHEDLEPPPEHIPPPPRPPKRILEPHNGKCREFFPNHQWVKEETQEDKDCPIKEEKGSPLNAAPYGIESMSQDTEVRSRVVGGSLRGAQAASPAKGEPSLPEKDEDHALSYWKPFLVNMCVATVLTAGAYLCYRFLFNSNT
- Experimental Details: Inhibition of human recombinant PTP1B expressed in Escherichia coli assessed as inhibition of phosphatase activity by measuring p-nitrophenyl phosphate at 6.7 microg/ml measured after 60 mins
- Condition Notes: dose 6.7 µg/ml
Recorded inhibition for the following compounds

1) COC(=O)[C@]12C3=C(C)O[C@@H]4OC(=O)[C@](C)(C[C@H]5C(C)=C6CC(=O)O[C@@]6(C(C)(C)O)[C@@H](C[C@@]51C)O3)[C@@H]42 = < 60%

Observed inhibition on UniProt P18031 for COC(=O)[C@]12C(=O)[C@H](C)O[C@@H]3OC(=O)[C@](C)(C[C@H]4C(C)=C5CC(=O)OC(C)(C)C5=CC[C@@]41C)[C@@H]32 [BERKELEYACETAL A] , please.
< 60%

Observed inhibition on UniProt P18031 for COC(=O)[C@]12[C@@H]3[C@H]4OC(=O)[C@]3(C)C[C@H]3C(C)=C5CC(=O)OC(C)(C)[C@@]56O[C@H]6[C@H](O[C@]1(O)[C@H](C)O4)[C@@]32C , please.
< 60%

----------
- Target Or System: Tyrosine-protein phosphatase non-receptor type 2 (Homo sapiens)
- Sequence (whole entry): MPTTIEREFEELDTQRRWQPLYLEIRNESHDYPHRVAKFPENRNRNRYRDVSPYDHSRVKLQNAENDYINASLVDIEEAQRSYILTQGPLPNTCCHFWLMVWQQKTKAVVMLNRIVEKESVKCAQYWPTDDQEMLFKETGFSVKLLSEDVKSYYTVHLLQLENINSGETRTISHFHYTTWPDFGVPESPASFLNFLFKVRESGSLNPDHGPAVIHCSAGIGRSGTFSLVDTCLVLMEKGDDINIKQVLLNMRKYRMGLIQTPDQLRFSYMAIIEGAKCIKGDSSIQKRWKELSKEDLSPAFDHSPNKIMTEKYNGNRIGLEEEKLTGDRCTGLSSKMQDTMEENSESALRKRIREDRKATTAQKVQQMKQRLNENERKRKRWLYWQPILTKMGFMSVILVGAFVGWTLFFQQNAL
- Experimental Details: Inhibition of human recombinant TCPTP expressed in Escherichia coli assessed as inhibition of phosphatase activity by measuring p-nitrophenyl phosphate at 6.7 microg/ml measured after 60 mins
- Condition Notes: dose 6.7 µg/ml
Measured Attribute: inhibition

Some solved entries appear below for comparison.
1. COC(=O)[C@]12[C@@H]3[C@@H](O)O[C@@H](C)[C@@]14OC(=O)[C@]3(C)C[C@H]1C(C)=C3CC(=O)OC(C)(C)[C@@]35O[C@H]5[C@H](O4)[C@@]12C = < 60%
2. COC(=O)CC1=C(C)[C@@H]2C[C@@]3(C)C(=O)O[C@H]4O[C@@H](C)[C@@]5(O)O[C@@H]([C@@H]6O[C@]16C(C)(C)O)[C@]2(C)[C@@]5(C(=O)OC)[C@H]43 = < 60%

From here, focus on the item given below.
So what does the record say about inhibition for COC(=O)[C@]12[C@@H]3[C@H]4OC(=O)[C@]3(C)C[C@H]3C(C)=C5CC(=O)OC(C)(C)[C@@]56O[C@H]6[C@H](O[C@]1(O)[C@H](C)O4)[C@@]32C ?
< 60%
